Assay: chemical genetic growth profiling, strain panel (AID 1159580);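 note: tested at 20 µM; growth read once vehicle control cultures reached saturation at 30 °C; 1 = growth at the plate median or of vehicle wells; lower values mean less growth of the strain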
Conditions: S. cerevisiae deletion strains, growth OD, locus YNL071W, strain lat1
About 2,000 (36%) of roughly 5,500 compounds were called active. About 18% were inconclusive and are not listed. Cut-off read from the data, not from the text of the source: active = normalized growth mostly below about 0.91 (no sharp cut-off); inconclusive = no clear call, values can overlap the other calls; inactive = mostly above about 0.92. The list shows a part of the results.
Return exactly one item of active, inactive

Use these answered entries as a reference point.
1) C#C[C@]1(O)CCC2C3CCC4=Cc5oncc5C[C@]4(C)C3CC[C@@]21C (stereo not given in full)
active
2) CCN(CC)CCNC(=O)c1cc(Cl)c(N)cc1OC
inactive
3) C[C@]12CCC(=O)C=C1CCC1C2C(=O)C[C@@]2(C)C1CC[C@]2(O)C(=O)CO (stereo not given in full)
inactive
4) O=C(O)[C@H](O)[C@@](O)(Cc1ccc(O)cc1)C(=O)O
inactive

Data request: Per the assay record, what outcome was assigned to C=C(C)[C@@H]1CC[C@]2(CO)CC[C@]3(C)[C@H](CCC4[C@@]5(C)CC[C@H](O)C(C)(C)C5CC[C@]43C)C12 (stereo not given in full) ?
Data returned: inactive

###

Experiment: chemical genetic growth profiling, strain panel (AID 1159580)
Conditions: S. cerevisiae deletion strains, growth OD, locus YFR003C, strain YPI1, active compounds read low
The campaign covered roughly 5,500 compounds. About 2,000 (36%) were called active. About 18% were inconclusive and are not listed. The list shows a part of the results.
Parameter measured: normalized growth
Field format: numeric only.

1) S=C(N/N=C\c1cccs1)NC1CC2CCC1C2 (stereo not given)
0.951

Data request: Returns the measured normalized growth for the input compound. Input: CSc1nnc(COc2ccc(C)c3c2CCC3)n1-c1ccccc1
Data returned: 0.979

Data request: Also Cc1ccc(OCc2n[nH]c(=S)n2Cc2ccccc2)c2c1CCC2 ?
Data returned: 0.985

Data request: Also O=C(Nc1cc2c(s1)-c1cc(Cl)ccc1SC2)Oc1ccccc1 ?
Data returned: 0.998

Data request: Also O=C(c1cc2c(s1)-c1ccccc1CC2)N1CCN(Cc2ccccc2)CC1 ?
Data returned: 0.998

###

Experiment: chemical genetic growth profiling, strain panel (AID 1159580);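 note: tested at 20 µM; growth read once vehicle control cultures reached saturation at 30 °C; 1 = growth at the plate median or of vehicle wells; lower values mean less growth of the strain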
Conditions: S. cerevisiae deletion strains, growth OD, locus YER015W, strain faa2
Screen size: about 5,500 compounds; about 2,000 (36%) were called active. Inconclusive results (about 18%) are left out. No stated cut-off is given here; in the data, active means normalized growth mostly below about 0.91 (no sharp cut-off); inconclusive means no clear call, values can overlap the other calls; inactive means mostly above about 0.92. This is one part of the list. Where a SMILES comes first, the peptide text is derived from it. Side-chain parts run from the residue outwards. [ ]: non-standard residue; d: D form. The star is where a group is joined. X1 = CCC(C)C(N)C1=NC(C(=O)*)CS1; Orn = NCCC[CH](N)C(=O)O
Return exactly one item of active, inactive

Use these answered entries as a reference point.
1. COc1cc2cc3c4cc(OC)c(OC)cc4cc[n+]3c(C)c2cc1OC
inactive
2. CCOc1ccc(NC(C)=O)cc1
inactive
3. NC[C@H]1O[C@H](O[C@H]2[C@H](O)[C@@H](O[C@H]3O[C@H](CO)[C@@H](O)[C@H](N)[C@H]3O)[C@H](N)C[C@@H]2N)[C@H](N)C[C@@H]1O
inactive
4. CCC(C)C(N)C1=NC(C(=O)NC(CC(C)C)C(=O)NC(CCC(=O)O)C(=O)NC(C(=O)NCCCCC2NC(=O)C(CC(N)=O)NC(=O)C(CC(=O)O)NC(=O)C(Cc3cnc[nH]3)NC(=O)C(Cc3ccccc3)NC(=O)C(C(C)CC)NC(=O)C(CCCN)NC2=O)C(C)CC)CS1 (stereo not drawn) (cyclo(DNK([Ile-Glu-Leu-X1])[Orn]IFH); configuration not given here)
inactive
5. CCOc1ccc(C(=O)c2ccc(O)c(O)c2O)cc1
active

Data request: Per the assay record, what outcome was assigned to NC(=O)NO ?
Data returned: inactive

Data request: Also COc1cc2c(cc1O)CCNC2C (stereo unspecified) ?
Data returned: inactive

Data request: Also COc1ccc(C(=O)c2ccccc2)c(O)c1O ?
Data returned: inactive

Data request: Also COc1ccc(C2C(=O)c3ccccc3C2=O)cc1 ?
Data returned: inactive

Data request: Also COc1c2occc2c(OC)c2c(=O)cc(C)oc12 ?
Data returned: inactive

Data request: Also CC(=O)OCC1=C(C(=O)O)N2C(=O)[C@@H](NC(=O)CCCC(N)C(=O)O)C2SC1 (stereo partly specified) ?
Data returned: inactive

###

Entries annotated with measured normalized growth
Assay: chemical genetic growth profiling, strain panel (AID 1159580);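 note: tested at 20 µM; growth read once vehicle control cultures reached saturation at 30 °C; 1 = growth at the plate median or of vehicle wells; lower values mean less growth of the strain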
Settings: S. cerevisiae deletion strains, growth OD, locus YJL187C, strain SWE1, active compounds read low
About 2,000 (36%) of roughly 5,500 compounds were called active. About 18% were inconclusive and are not listed. The list shows a part of the results. Where a SMILES comes first, the peptide text is derived from it. Bridges are numbered along the chain shown (N, C = ends). [ ]: non-standard residue; d: D form. The star is where a group is joined. Octanoyl(6-Me) = CCC(C)CCCCC(=O)*; Orn = NCCC[CH](N)C(=O)O; Dab = NCC[CH](N)C(=O)O
Field format: numeric only.

1. CC1=CC2C(C(C)C)CCC(C)(O)C2CC1 (stereo not given)
1
2. O/N=C\c1sccc1Oc1ccccc1
1.01
3. CC(=O)O[C@H]1CC[C@]2(C)C3CC[C@@]4(C)C(CC5O[C@@]6(CCC(C)CO6)[C@@H](C)C54)C3CC[C@@H]2C1 (stereo not given in full)
1.01
4. Cc1ccc(OCc2nnc(SCC(=O)c3ccc(F)cc3)n2-c2ccccc2)c2c1CCC2
0.983
5. CC(=O)OCC1=C(C(=O)O)N2C(=O)[C@@H](NC(=O)CCCC(N)C(=O)O)C2SC1 (stereo not given in full)
0.994

Data request: Returns the measured normalized growth for the input compound. Input: COC1(C)CCC2OC2(C)CCC2C1CC2(C)C (stereo not given)
Data returned: 1

Data request: Also CNS(=O)(=O)c1cc(Br)ccc1S(=O)c1ccccc1C(=O)O (stereo not given) ?
Data returned: 1

Data request: Also NC1C[C@H]1c1ccccc1 (stereo not given in full) ?
Data returned: 0.992

Data request: Also C[C@]12CCC3C(CC[C@H]4C[C@H](OS(=O)(=O)O)CC[C@]34C)C1CCC2=O (stereo not given in full) ?
Data returned: 1.05

Data request: Also CNS(=O)(=O)c1ccc(NC(=O)c2ccccc2C(=O)O)cc1 ?
Data returned: 0.99

Data request: Also CN(C(=O)Nc1ccccc1)n1cnc2ccccc2c1=O ?
Data returned: 1.01

Data request: Also CC(=O)NS(=O)(=O)c1ccc(NC(=O)c2ccccc2C(=O)O)cc1 ?
Data returned: 1.01

Data request: Also CCC(C)CCCCC(=O)NC(CCN)C(=O)NC(C(=O)NC(CCN)C(=O)NC1CCNC(=O)C(C(C)O)NC(=O)C(CCN)NC(=O)C(CCN)NC(=O)C(CC(C)C)NC(=O)C(Cc2ccccc2)NC(=O)C(CCN)NC1=O)C(C)O (stereo not given) ({Octanoyl(6-Me)}-[Dab]T[Dab][Dab][Dab]FL[Dab][Dab]T; lactam 4-C; configuration not given here) ?
Data returned: 0.998

Data request: Also CC(C)CC1NC(=O)C(CCCN)NC(=O)C(C(C)C)NC(=O)C2CCCN2C(=O)C(Cc2ccccc2)NC(=O)C(CC(C)C)NC(=O)C(CCCN)NC(=O)C(C(C)C)NC(=O)C2CCCN2C(=O)C(Cc2ccccc2)NC1=O (stereo not given) (cyclo(FPV[Orn]LFPV[Orn]L); configuration not given here) ?
Data returned: 1.04

Data request: Also Cc1cccc(C(=O)c2ccccc2C(=O)O)c1 ?
Data returned: 0.998

###

Assay: chemical genetic growth profiling, strain panel (AID 1159580);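 note: tested at 20 µM; growth read once vehicle control cultures reached saturation at 30 °C; 1 = growth at the plate median or of vehicle wells; lower values mean less growth of the strain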
Settings: S. cerevisiae deletion strains, growth OD, locus YPL051W, strain arl3, active compounds read low
Hit rate of the full screen: of about 5,500 compounds, about 2,000 (36%) were called active. Inconclusive results (about 18%) are left out. The list shows a part of the results.
Entries annotated with measured normalized growth
Field format: numeric only.

Worked cases, normalized growth given:
1. CC[C@H]1OC(=O)[C@H](C)[C@@H](O[C@H]2C[C@@](C)(OC)[C@@H](O)[C@H](C)O2)[C@H](C)[C@@H](O[C@@H]2O[C@H](C)C[C@H](N(C)C)[C@H]2O)[C@](C)(O)C[C@@H](C)[C@@H]2N[C@@H](COCCOC)O[C@H]([C@H]2C)[C@]1(C)O
1.01
2. COc1cccc(OC)c1C(=O)N[C@@H]1C(=O)N2[C@@H]1SC(C)(C)[C@@H]2C(=O)O
0.989

Data request: Returns the measured normalized growth for the input compound. Input: Cc1onc(-c2ccccc2Cl)c1C(=O)N[C@@H]1C(=O)N2[C@@H]1SC(C)(C)[C@@H]2C(=O)O
Data returned: 1.02

Data request: Also Cc1cc(=O)n(-c2ccccc2)n1C ?
Data returned: 0.98

Data request: Also Cc1c(NC(=O)c2cccnc2)c(=O)n(-c2ccccc2)n1C ?
Data returned: 1.01

Data request: Also O=C1c2ccccc2C(=O)C1c1ccccc1 ?
Data returned: 1
